Tested on: OVCAR-4
TEST DESCRIPTION: NCI tumour cell line growth inhibition, 48 h
The source made the active and inactive calls. Cut-off read from the data, not from the text of the source: active = GI50 up to about 1.1 µM and inactive = higher.
Select the correct class. Options are YES for active, NO for inactive and nothing else.

These solved cases illustrate the format of a correct answer.
COMPOUND	ASSIGNED LABEL
O=C1C=C2CCC[C@H]3OC(=O)C[C@@]23CC1	NO
CN(C)C1(c2cc3ccccc3s2)CCCCC1	NO
CC(C)C(=O)CC(c1ccc(Br)cc1)N1N=C(C(C)C)CC1c1ccc(Br)cc1 (configuration not stated)	NO
CC1=C(C(=O)Nc2ccccc2C)C(c2ccc(Cl)cc2)C(C(=O)Nc2ccccc2C)=C(C)N1	NO
COc1ccc(N2C(=O)C3c4[nH]c5ccccc5c4C4CC(C)CC(C)C4C3C2=O)cc1 (configuration not stated)	NO
CCCCCCCCCCC[N+]1(Cc2ccccc2)CC2CCN(Cc3ccccc3)CC2C1 (configuration not stated)	YES
O=C(O)CNc1ccc(C(=O)O)cc1	NO
Cc1nc(O)nc(NNCc2ccc(Cl)cc2)c1C(=O)Nc1ccc(Cl)cc1	NO

IN: Outcome logged for O=C1CSC(C(/N=N/c2ccccc2)=C2Nc3ccccc3N2)=N1 in this assay:
OUT: NO

IN: Outcome logged for C=C1C(=O)O[C@@H]2C=C(C)C3=CC(=O)[C@](C)(C[C@H](OC(=O)/C(C)=C\C)[C@@H]12)O3 in this assay:
OUT: NO

IN: Outcome logged for C[N+]1(C)CCCC(C#N)(c2ccccc2)CC1 (configuration not stated) in this assay:
OUT: NO

----------
System: CAKI-1
TEST DESCRIPTION: NCI tumour cell line growth inhibition, 48 h
The source made the active and inactive calls. Rule as the data show it: active = GI50 up to about 1.1 µM and inactive = higher.
// reported GI50 for each item listed

Past entries and their recorded results:
COMPOUND	TARGET OF ASSAY	EXPERIMENTAL RESULT
OC(c1ccco1)C(F)(F)c1nc2ccccc2o1 (stereo unspecified)	CAKI-1	> 100 µM (inactive)
COC(=O)C1=NN2c3ccccc3CN([C@@H](C)c3ccccc3)C(=O)[C@@H]2C1	CAKI-1	23.2 µM (inactive)
CCOc1ccccc1Nc1ccc(N)cc1S(=O)(=O)O	CAKI-1	> 100 µM (inactive)

For reference, reported GI50 for O=C1c2ccccc2C(=O)c2c(NCCNC(=O)C3CCCN3)ccc(NCCNC(=O)C3CCCN3)c21 (stereo unspecified) stands at > 100 µM (inactive)

For reference, reported GI50 for CCCNC1=NC(C)=CSC(Nc2ccccc2)=C1C#N stands at > 100 µM (inactive)

For reference, reported GI50 for CCN1/C(=C/C#C/C(C)=C\c2sc3ccccc3[n+]2CC)Sc2ccccc21 stands at 2.39 µM (inactive)

For reference, reported GI50 for CN(C)C(=S)N/N=C\C(=N/NC(=S)N(C)C)c1ccccc1 stands at 7.24 µM (inactive)

For reference, reported GI50 for COc1ccc(C2C3=C(COC3=O)Oc3cc4c(cc32)OCO4)cc1 (stereo unspecified) stands at 7.53 µM (inactive)

For reference, reported GI50 for Cc1[nH]c(=O)nc(N/N=C/c2ccc(Cl)cc2)c1C(=O)Nc1ccc(Cl)cc1 stands at 53.5 µM (inactive)

For reference, reported GI50 for CC1=NN(c2cc(Cl)c(S(=O)(=O)O)cc2Cl)C2(C1)C(Cl)C(=O)N2c1nc2ccccc2s1 (stereo unspecified) stands at > 100 µM (inactive)

For reference, reported GI50 for N#CCCN(CCC#N)c1ccc(/C=C2\N=C(c3ccccc3)N(NC(N)=S)C2=O)cc1 stands at > 100 µM (inactive)

For reference, reported GI50 for O=c1[nH]c(=O)n(COCCOCc2ccccc2)cc1Nc1ccccc1 stands at > 100 µM (inactive)

For reference, reported GI50 for CC12CCC(C/C1=N\NC(N)=O)C2(C)C (stereo unspecified) stands at > 100 µM (inactive)

For reference, reported GI50 for CCN(CC)CC(C(C)=O)C(c1ccccc1)c1c(O)c2ccccc2oc1=O (stereo unspecified) stands at > 100 µM (inactive)
